B1: LINE1-mini (parent)
chain: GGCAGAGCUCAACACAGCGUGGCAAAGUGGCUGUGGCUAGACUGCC

Variants of: B1
protocol description: self-cleavage, relative activity (ratio to wild type); higher = more cleavage; in vitro, sequencing; the parent is a self-cleaving ribozyme
Returns one of class 1 or class 0; class 1 when self-cleavage is >= 0.1.

# sequence code, qualitative label
data = [
    ("GGCAGAGCUCAACACAGCAUGGCAAAGUGGCUGUGGCUAUACUGCC [G19A G40U]", "class 1"),
    ("GGCAGAGCUCAACACAGCGUGGCUAAGUGGCUGUCGCUAGACUGCC [A24U G35C]", "class 0"),
    ("GGCAGAGCUCAACAGAGCGUGGCAACGUGGCUGUGGCUAGACUGCC [C15G A26C]", "class 0"),
    ("GCCAGAGCUCAACCCAGCGUGGCAAAGUGGCUGUGGCUAGACUGCC [G2C A14C]", "class 0"),
    ("GGAAGAGCUCAACACACCGUGGCAAAGUGGCUGUGGCUAGACUGCC [C3A G17C]", "class 1"),
    ("GGCAGAGCUUAACACAGCGAGGCAAAGUGGCUGUGGCUAGACUGCC [C10U U20A]", "class 1"),
    ("GGCAGAUCUCAACACAGCGUGACAAAGUGGCUGUGGCUAGACUGCC [G7U G22A]", "class 0"),
    ("GGCAGAGCUCAACACAGCGUGGCAAAAUGGCUGUGGCUAGAUUGCC [G27A C42U]", "class 1"),
]

Prompt: Would you say GGCAGGGCUCAACACAGCGGGGCAAAGUGGCUGUGGCUAGACUGCC [A6G U20G] shows self-cleavage at minimum 0.1?
Completion: class 1

Prompt: Would you say GGCAGAGCUCAACACACCGUGGCAAAGUUGCUGUGGCUAGACUGCC [G17C G29U] shows self-cleavage at minimum 0.1?
Completion: class 1

Prompt: Would you say GGUAGAGCUCAACACUGCGUGGCAAAGUGGCUGUGGCUAGACUGCC [C3U A16U] shows self-cleavage at minimum 0.1?
Completion: class 0

Prompt: Would you say GACACAGCUCAACACAGCGUGGCAAAGUGGCUGUGGCUAGACUGCC [G2A G5C] shows self-cleavage at minimum 0.1?
Completion: class 0

Prompt: Would you say GGCAGAGCUCAACACAGCGAGGCAAAUUGGCUGUGGCUAGACUGCC [U20A G27U] shows self-cleavage at minimum 0.1?
Completion: class 1
